All values here come from the Deep4Chem optical property database.

- assay-comment: solvent given as SMILES
- experimental-context: in CC#N
# note: exactly 500 nm is not below, so it is condition not met; use condition met for emission maximum strictly under it

• Oc1ccccc1/N=C/c1ccccc1Oc1ccccc1 = condition met
• CC(C)=CC(=O)c1cc2c(cc1F)NC(C)(C)CC2=O = condition met
• Cc1oc2c(Cl)cc3c(C)cc(=O)oc3c2c1C = condition met
• CCOC(=O)c1c2c3c(ccc(C)c3c3cc4c(cc13)[Si](C)(C)O[Si]4(C)C)N(C)C2=O = condition met
• CCC1=C(C)C2=Cc3c4ccccc4c4n3[B-](c3ccncc3)(Oc3ccccc3-4)[N+]2=C1C (configuration not stated) = condition not met
• COC(=O)C(Cc1ccc2oc(-c3ccc(-n4c5ccccc5c5ccccc54)cc3)nc2c1)NC(=O)OC(C)(C)C (configuration not stated) = condition met
• CN(C)c1ccc(-c2cc(-c3ccc(C#N)cc3)nn2C)cc1 = condition not met
• CCOC(=O)/C(C#N)=C\c1ccc2c(c1)c1ccccc1n2-c1ccc(OC)cc1 = condition not met
• C=Cc1cc2ccccc2oc1=O = condition met
• Cc1cc(=O)oc2c3c4c(cc12)CCCN4CCC3 = condition met
• CCCCn1c2ccc(/C=C(\C#N)c3ccc([N+](=O)[O-])cc3)cc2c2cc(Cn3c(-c4ccc5c(c4)c4ccccc4n5CCCC)nc4ccccc43)ccc21 = condition not met
• COc1c2ccccc2c(OC)c2c1c1c(C)ccc(OC)c1n2C = condition met
• CN(C)c1ccc2cc(C3=[O+][B-](F)(F)OC(c4ccccc4)=C3)ccc2c1 = condition met
• CCNc1cc2c(cc1C)C(c1ccccc1C(=O)O)=C1CCCC(/C=C/C3=[N+](C)c4ccc5ccccc5c4C3(C)C)=C1O2 = condition not met
• CC1(C)CC(/C=C/c2ccc(N3CCOCCOCCOCCOCC3)cc2)=CC(=C(C#N)C#N)C1 = condition not met
